Target desc: Dual specificity tyrosine-phosphorylation-regulated kinase 1B (Homo sapiens)
Sequence (Q9Y463 whole entry): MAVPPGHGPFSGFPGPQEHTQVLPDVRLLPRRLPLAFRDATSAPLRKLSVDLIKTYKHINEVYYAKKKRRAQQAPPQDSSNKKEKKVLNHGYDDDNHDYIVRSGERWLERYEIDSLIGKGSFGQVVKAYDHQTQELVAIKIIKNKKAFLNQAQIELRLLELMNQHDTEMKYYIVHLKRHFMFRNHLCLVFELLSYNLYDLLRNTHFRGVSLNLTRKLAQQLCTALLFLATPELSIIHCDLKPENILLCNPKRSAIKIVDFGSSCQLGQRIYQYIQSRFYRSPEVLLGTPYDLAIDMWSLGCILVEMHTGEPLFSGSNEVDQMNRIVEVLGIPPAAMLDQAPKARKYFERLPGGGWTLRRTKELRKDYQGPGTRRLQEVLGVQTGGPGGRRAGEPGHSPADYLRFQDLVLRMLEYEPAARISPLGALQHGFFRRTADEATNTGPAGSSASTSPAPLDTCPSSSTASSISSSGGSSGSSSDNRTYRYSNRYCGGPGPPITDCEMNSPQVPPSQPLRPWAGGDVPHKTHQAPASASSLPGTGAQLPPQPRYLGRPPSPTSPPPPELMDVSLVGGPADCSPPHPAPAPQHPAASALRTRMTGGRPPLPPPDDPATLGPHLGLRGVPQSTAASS
pKi: −log10 of the molar value.
Outcome measure: pKi

Recorded pKi, per entry:
NC(=O)c1cc2c(-c3ccc(C(=O)NCc4ccccc4O)s3)cccc2s1 : 7.19
NC(=O)c1cc2c(-c3ccc(C(=O)NCc4cccc(N)c4)s3)ccc(F)c2s1 : 5.64
NC(=O)c1cc2c(-c3ccc(C(=O)NC4CCOCC4)s3)cccc2s1 : 5.96

(a) NC(=O)c1cc2c(-c3ccc(C(=O)NCc4ccccc4)s3)cccc2s1
(b) NC(=O)c1cc2c(-c3ccc(C(=O)NCc4cccc(N)c4)s3)cccc2s1
(c) NC(=O)c1cc2c(-c3ccc(C(=O)NCc4ccccc4O)s3)c(Cl)ccc2s1
# desc sort on pKi across 3 compounds Answer format: list of labels, ordered as asked.
a, b, c
(a: 6.56, b: 6.18, c: 5.93)
